# test system: 3',5'-cyclic-AMP phosphodiesterase 4D (Homo sapiens)
Returns: string. Value is y if measured IC50 is below 50 nM, and n if it is greater than or equal to it.

Record CCN(CC)C(=O)c1cccc(-c2cc3nccc(-c4ccc(OC(F)F)c(OCC5CC5)c4)n3n2)c1 : is its IC50 strictly below 50 nM?
n

Record CS(=O)(=O)CNc1cccc(-c2cc3nccc(-c4ccc(OC(F)F)c(OCC5CC5)c4)n3n2)c1 : is its IC50 strictly below 50 nM?
y

Record FC(F)Oc1ccc(-c2ccnc3cc(-c4cccc(C(F)F)c4)nn23)cc1OCC1CC1 : is its IC50 strictly below 50 nM?
y

Record [O-][n+]1cccc(-c2cc3nccc(-c4ccc(OC(F)F)c(OCC5CC5)c4)n3n2)c1 : is its IC50 strictly below 50 nM?
y

Record Oc1cccc(-c2cc3nccc(-c4ccc(OC(F)F)c(OCC5CC5)c4)n3n2)c1 : is its IC50 strictly below 50 nM?
y

Record CCOc1cccc(-c2cc3nccc(-c4ccc(OC(F)F)c(OCC5CC5)c4)n3n2)c1 : is its IC50 strictly below 50 nM?
y

Record COc1cccc(-c2cc3nccc(-c4ccc(OC)c(OC5CCCC5)c4)n3n2)c1 : is its IC50 strictly below 50 nM?
y

Record COc1ccc(-c2cc3nccc(-c4ccc(OC(F)F)c(OCC5CC5)c4)n3n2)cc1O : is its IC50 strictly below 50 nM?
y

Record FC(F)Oc1ccc(-c2ccnc3cc(-c4ccccc4)nn23)cc1OCC1CC1 : is its IC50 strictly below 50 nM?
n

* * *

# assay protocol: Inhibition of PDE4
For each of the compounds below, state its IC50.
Give the value in nM but do not write nM after it.

Any idea what its IC50 is? The compound is [O-][n+]1cccc(-c2cc3nccc(-c4ccc(OC(F)F)c(OCC5CC5)c4)n3n2)c1
26

Any idea what its IC50 is? The compound is FC(F)Oc1ccc(-c2ccnc3cc(-c4cccnc4)nn23)cc1OCC1CC1
9

* * *

# test system: 3',5'-cyclic-AMP phosphodiesterase 4D (Homo sapiens)
Returns: string. Value is Fulfilled if measured IC50 is below 0.1 µM, and Not fulfilled if it is greater than or equal to it.

Record CC(C)(C)OC(=O)N1CCN(c2cccc(-c3cc4nccc(-c5ccc(OC(F)F)c(OCC6CC6)c5)n4n3)c2)CC1 : is its IC50 strictly below 0.1 µM?
Fulfilled

Record O=C(c1cccc(-c2cc3nccc(-c4ccc(OC(F)F)c(OCC5CC5)c4)n3n2)c1)N1CCCCC1 : is its IC50 strictly below 0.1 µM?
Fulfilled

Record N#CNc1cccc(-c2cc3nccc(-c4ccc(OC(F)F)c(OCC5CC5)c4)n3n2)c1 : is its IC50 strictly below 0.1 µM?
Fulfilled

Record CN(C)c1cccc(-c2cc3nccc(-c4ccc(OC(F)F)c(OCC5CC5)c4)n3n2)c1 : is its IC50 strictly below 0.1 µM?
Not fulfilled

Record FC(F)Oc1ccc(-c2ccnc3cc(-c4cccc(C(F)(F)F)c4)nn23)cc1OCC1CC1 : is its IC50 strictly below 0.1 µM?
Not fulfilled

Record NC(=O)Nc1cccc(-c2cc3nccc(-c4ccc(OC(F)F)c(OCC5CC5)c4)n3n2)c1 : is its IC50 strictly below 0.1 µM?
Not fulfilled

* * *

# test system: 3',5'-cyclic-AMP phosphodiesterase 4D (Homo sapiens, UniProt Q08499)
# Sequence (Q08499 whole entry): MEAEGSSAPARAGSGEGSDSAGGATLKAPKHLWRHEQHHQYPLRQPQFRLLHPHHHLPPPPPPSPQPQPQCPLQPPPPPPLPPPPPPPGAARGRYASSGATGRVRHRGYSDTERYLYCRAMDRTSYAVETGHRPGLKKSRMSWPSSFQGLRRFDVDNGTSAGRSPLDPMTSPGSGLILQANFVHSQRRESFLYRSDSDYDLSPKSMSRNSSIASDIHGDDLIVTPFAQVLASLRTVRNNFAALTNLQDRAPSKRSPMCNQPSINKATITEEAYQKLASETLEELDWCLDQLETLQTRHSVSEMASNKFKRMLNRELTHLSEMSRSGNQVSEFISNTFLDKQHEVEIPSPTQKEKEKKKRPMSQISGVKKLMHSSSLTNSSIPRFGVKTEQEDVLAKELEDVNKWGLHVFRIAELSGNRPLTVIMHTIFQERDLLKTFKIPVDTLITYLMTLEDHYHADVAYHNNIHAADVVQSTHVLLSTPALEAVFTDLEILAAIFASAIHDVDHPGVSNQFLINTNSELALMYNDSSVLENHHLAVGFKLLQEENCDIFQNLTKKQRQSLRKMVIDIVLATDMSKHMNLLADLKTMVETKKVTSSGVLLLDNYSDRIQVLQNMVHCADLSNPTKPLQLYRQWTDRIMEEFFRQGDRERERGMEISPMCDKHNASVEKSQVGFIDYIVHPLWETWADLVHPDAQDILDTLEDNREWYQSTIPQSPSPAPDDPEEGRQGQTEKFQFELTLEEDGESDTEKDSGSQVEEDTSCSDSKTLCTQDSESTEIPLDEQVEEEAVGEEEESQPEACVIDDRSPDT
# assay protocol: Inhibition of human PDE4D in U937 cells assessed as cAMP accumulation
reported endpoint: EC50 (nM)
Give the value in nM but do not write nM after it.

Any idea what its EC50 is? The molecule is [O-][n+]1cccc(-c2cc3nccc(-c4ccc(OC(F)F)c(OCC5CC5)c4)n3n2)c1
1610
